Data origin: patent US20150089682A1

Resistance Factor W574L reference
Target: Arabidopsis thaliana W574L-mutant ALS (Arabidopsis thaliana, UniProt P17597, E575Q/W574L)
Construct: vector-encoded N-terminal fusion of pET-32a(+) (Trx/His/S tag by own knowledge); made in house; host or cells: Escherichia coli AD494
Assay: biochemical
Settings: relative to WT; from measured pI50
Readout: Resistance Factor W574L

[
  {
    "Molecule": "COc1cc(OC)nc(NC(=O)NS(=O)(=O)N(C)S(C)(=O)=O)n1",
    "Qualifier sign": ">",
    "Recorded value": 501
  },
  {
    "Molecule": "COc1cc(OC)nc(NC(=O)NS(=O)(=O)c2cc(NC=O)ccc2C(=O)N(C)C)n1",
    "Qualifier sign": "=",
    "Recorded value": 7943
  },
  {
    "Molecule": "COc1ncc(F)c2nc(S(=O)(=O)Nc3c(F)cccc3F)nn12",
    "Qualifier sign": "=",
    "Recorded value": 1585
  },
  {
    "Molecule": "COc1cc(OC)nc(Oc2cccc(Oc3nc(OC)cc(OC)n3)c2C(=O)O)n1 [Bispyribac-sodium, bispyribac-sodium]",
    "Qualifier sign": "=",
    "Recorded value": 398
  },
  {
    "Molecule": "CCS(=O)(=O)c1cccnc1S(=O)(=O)NC(=O)Nc1nc(OC)cc(OC)n1",
    "Qualifier sign": "=",
    "Recorded value": 316
  },
  {
    "Molecule": "COC(=O)c1csc(C)c1S(=O)(=O)NC(=O)n1nc(OC)n(C)c1=O",
    "Qualifier sign": "=",
    "Recorded value": 1259
  },
  {
    "Molecule": "COc1cc(OC)n2nc(S(=O)(=O)Nc3c(Cl)ccc(C)c3Cl)nc2n1",
    "Qualifier sign": "=",
    "Recorded value": 7943
  }
]

----------
Target: Arabidopsis thaliana P197S-mutant ALS (Arabidopsis thaliana, UniProt P17597, E575Q/P197S)
Construct: vector-encoded N-terminal fusion of pET-32a(+) (Trx/His/S tag by own knowledge); made in house; host or cells: Escherichia coli AD494
Assay: biochemical
Conditions: relative to WT; from measured pI50
Resistance Factor P197S reference

[
  {
    "Compound": "COc1ncc(F)c2nc(S(=O)(=O)Nc3c(F)cccc3F)nn12",
    "Target entity": "Arabidopsis thaliana P197S-mutant ALS (Arabidopsis thaliana, UniProt P17597, E575Q/P197S)",
    "Resistance Factor P197S": 25
  },
  {
    "Compound": "CCCOc1nn(C(=O)[N-]S(=O)(=O)c2ccccc2C(=O)OC)c(=O)n1C.[Na+] [Propoxycarbazone, propoxycarbazone-sodium]",
    "Target entity": "Arabidopsis thaliana P197S-mutant ALS (Arabidopsis thaliana, UniProt P17597, E575Q/P197S)",
    "Resistance Factor P197S": 158
  },
  {
    "Compound": "COC(=O)c1ccc(CNS(C)(=O)=O)cc1S(=O)(=O)NC(=O)Nc1nc(OC)cc(OC)n1",
    "Target entity": "Arabidopsis thaliana P197S-mutant ALS (Arabidopsis thaliana, UniProt P17597, E575Q/P197S)",
    "Resistance Factor P197S": 79
  },
  {
    "Compound": "COCc1cnc(C2=NC(C)(C(C)C)C(=O)N2)c(C(=O)O)c1 (stereo not drawn)",
    "Target entity": "Arabidopsis thaliana P197S-mutant ALS (Arabidopsis thaliana, UniProt P17597, E575Q/P197S)",
    "Resistance Factor P197S": 1
  },
  {
    "Compound": "COC(=O)c1csc(C)c1S(=O)(=O)NC(=O)n1nc(OC)n(C)c1=O",
    "Target entity": "Arabidopsis thaliana P197S-mutant ALS (Arabidopsis thaliana, UniProt P17597, E575Q/P197S)",
    "Resistance Factor P197S": 1259
  },
  {
    "Compound": "COC(=O)c1ccccc1S(=O)(=O)NC(=O)Nc1nc(C)nc(OC)n1",
    "Target entity": "Arabidopsis thaliana P197S-mutant ALS (Arabidopsis thaliana, UniProt P17597, E575Q/P197S)",
    "Resistance Factor P197S": 50
  },
  {
    "Compound": "COc1cc(OC)nc(NC(=O)NS(=O)(=O)N(C)S(C)(=O)=O)n1",
    "Target entity": "Arabidopsis thaliana P197S-mutant ALS (Arabidopsis thaliana, UniProt P17597, E575Q/P197S)",
    "Resistance Factor P197S": ">501"
  },
  {
    "Compound": "COc1cc(OC)nc(Oc2cccc(Oc3nc(OC)cc(OC)n3)c2C(=O)O)n1 [Bispyribac-sodium, bispyribac-sodium]",
    "Target entity": "Arabidopsis thaliana P197S-mutant ALS (Arabidopsis thaliana, UniProt P17597, E575Q/P197S)",
    "Resistance Factor P197S": 4
  },
  {
    "Compound": "COC(=O)c1sccc1S(=O)(=O)NC(=O)Nc1nc(C)nc(OC)n1",
    "Target entity": "Arabidopsis thaliana P197S-mutant ALS (Arabidopsis thaliana, UniProt P17597, E575Q/P197S)",
    "Resistance Factor P197S": 200
  }
]
